B1: ADAMTS4 (parent)
chain: SFRKFRYGYNNVVTIPAGATHILV

# Variants of: B1
# test-summary: protein stability index of a GFP-peptide fusion (GPS, HEK-293T) (PSI 1-6); higher = more stable;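 also: lentivirally expressed fusions sorted by FACS into six bins by GFP to DsRed ratio, PSI derived from sequencing read proportions per bin multiplied by bin number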
# condition-context: c terminus: a fixed tail appended
# key: entry, value: protein stability index
Reply with the value as a number alone.

## Task # get_value(readout='protein stability index', item= SFRKFRYGYNNVVTIPQGATHILV [A17Q] )
## Result 1.33

## Task # get_value(readout='protein stability index', item= SFSKFRYGYNNVVTIPAGATHILV [R3S] )
## Result 2.58
